- Test system: RXRa DBDmut IVT, anti-RXR (DBD mutation: RXRa K156A/R161A, NR concentration 90 nM)
- Experiment summary: PBM binding z-score (relative to random genomic background probes); higher = stronger binding; sequences stand for … in GC…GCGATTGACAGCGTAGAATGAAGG
Catalogue of sequences with associated PBM binding z-score
Write no unit; give the number alone.

Worked set:
>>> quantitative_result("CCTAGTTGGTCTAGGTCACACACGCTATAGGTAC")
0.925
>>> quantitative_result("CCTTACGGGTCACTGACAGGTTATAGGATTTGGA")
1.67
>>> quantitative_result("CGAACTAGGTCATGGACAGTGAATCTCCGCACGC")
1.84
>>> quantitative_result("ACTCGGAGGACAAAGGTCAGAGCAACGCCAGTGA")
1.26
>>> quantitative_result("TCTTGTAGATCAGCATGTTAAGAAAGCTGGCCAA")
0.518
>>> quantitative_result("CAAACTAGGTCACCGCAAGGTCAAAGTCCGCATG")
2.61
>>> quantitative_result("GGAACGAGGGCAAGATGATAGCAGAGTTTGATGG")
1.52
>>> quantitative_result("TTACCAAGGGGAAGGTCGTTGATCCCTCTGTAGA")
-0.444
>>> quantitative_result("TCAGACAGGTGAAGGTAACTCCGGTACGCAGTCG")
1.28
>>> quantitative_result("CGTCAAAGTTCAACCAAGGTAACGTAAAGCACGC")
4.5

System RXRa DBDmut IVT, anti-RXR (DBD mutation: RXRa K156A/R161A, NR concentration 90 nM). Read-out PBM binding z-score. Item `GCTCGGAGGACAATGTCAGAGCTTTGTCCGTAGA` . Report value.
0.18

System RXRa DBDmut IVT, anti-RXR (DBD mutation: RXRa K156A/R161A, NR concentration 90 nM). Read-out PBM binding z-score. Item `TCTCGGAGGGCACGAAGGTCAGAGCTTTCCAGAG` . Report value.
0.77
